System: iNOS transcripts
Assay: Inhibition of LPS induction of iNOS transcripts in macrophages (rt-PCR)
Assay type: cell-based
Conditions: Mus musculus, Macrophage; LPS-treated murine macrophages, mRNA transcripts by rt-PCR
Experimental: Murine macrophages were treated with LPS in the presence of various exemplary compounds described above. Subsequently, the cells were harvested and the transcripts for IL-6, iNOS, and INF-β quantified via rt-PCR. IC50 is the concentration of the compounds required to inhibit 50% of the mRNA transcripts induced by LPS. TC50 is the concentration of the compounds required to diminish the MTS signal by 50% (MTS signal correlates with cell metabolism/viability). […]
Kindly state pIC50 for each of the entries shown.
Kindly note that pIC50 refers to -log10 of the concentration in mol/L and answer with the value alone.

Enquiry: Tell me the measured pIC50 of COc1ccc(F)cc1C1(O)CSC(=S)N1Cc1cccnc1 (centres unmarked) , please.
Return: 6.00

Enquiry: Tell me the measured pIC50 of COc1ccc(OC)c(C2(O)CSC(=S)N2Cc2ccccc2)c1 (centres unmarked) , please.
Return: 5.52

Enquiry: Tell me the measured pIC50 of Oc1cccc(C2(O)CSC(=S)N2Cc2cccnc2)c1 (centres unmarked) , please.
Return: 6.82

Enquiry: Tell me the measured pIC50 of `COc1ccc(-c2csc(=S)n2Cc2cccnc2)c(OC)c1` , please.
Return: 5.15
